Log2 fold-change of gene expression: HIF1A values by entry
Test system: angiogenesis genes in dermal microvascular endothelial cells
Assay: Real time RT-PCR of angiogenesis gene expression during endothelial tube formation
Assay type: cell-based
Details: 1 μM SM, 24 hours
Quick one: just the number, no unit, thanks!

Example results:
{"Molecule": "COC(=O)C1CC(=O)C(C(=O)OC)CC1=O (stereo not drawn) [Compound 122567]", "Test Target": "angiogenesis genes in dermal microvascular endothelial cells", "Assay Result": "−3.1"}
{"Molecule": "COc1cc2cc(c1Cl)N(C)C(=O)CC(OC(=O)C(C)C)C1(C)OC1C(C)C1CC(O)(NC(=O)O1)C(OC)/C=C/C=C(\\C)C2 (stereo not drawn) [compound 292222]", "Test Target": "angiogenesis genes in dermal microvascular endothelial cells", "Assay Result": "−0.7"}
{"Molecule": "CC1CCN(CC[S-])CC1.O.O.[Cl][Pt+] [compound 292596]", "Test Target": "angiogenesis genes in dermal microvascular endothelial cells", "Assay Result": "−2.1"}
{"Molecule": "COc1ccc(CC2C(=O)NC(C)C(=O)N(C)C3Cc4ccc(cc4)Oc4cc(ccc4O)CC(C(=O)NC(C)C(=O)NC(C)C(=O)N2C)N(C)C3=O)cc1 (stereo not drawn) [compound 259969]", "Test Target": "angiogenesis genes in dermal microvascular endothelial cells", "Assay Result": 0.7}
{"Molecule": "CCC(=O)OCN1C(=O)C=CC1=O [compound 19630]", "Test Target": "angiogenesis genes in dermal microvascular endothelial cells", "Assay Result": "−1.7"}

Read the next record carefully.
Give the measured Log2 fold-change of gene expression: HIF1A for O=C1C(=Cc2ccccc2)C(NC2CCCCC2)c2ccccc21 (stereo not drawn) [compound 150117]
−1.8
